Each recorded value in this set is attributed to ChEMBL document CHEMBL1955733.

- experiment-description: Fraction unbound in Sprague-Dawley rat brain homogenate
- Format: ADME, tissue-based
property-measured: fraction unbound
Number only, please.

stdin: Given the compound `C[C@@H]1CCCN1CCCOc1ccc(-c2cnn(-c3ccccn3)c(=O)c2)cc1` , write its reported fraction unbound.
stdout: 0.39

###

Protein target, amino acids: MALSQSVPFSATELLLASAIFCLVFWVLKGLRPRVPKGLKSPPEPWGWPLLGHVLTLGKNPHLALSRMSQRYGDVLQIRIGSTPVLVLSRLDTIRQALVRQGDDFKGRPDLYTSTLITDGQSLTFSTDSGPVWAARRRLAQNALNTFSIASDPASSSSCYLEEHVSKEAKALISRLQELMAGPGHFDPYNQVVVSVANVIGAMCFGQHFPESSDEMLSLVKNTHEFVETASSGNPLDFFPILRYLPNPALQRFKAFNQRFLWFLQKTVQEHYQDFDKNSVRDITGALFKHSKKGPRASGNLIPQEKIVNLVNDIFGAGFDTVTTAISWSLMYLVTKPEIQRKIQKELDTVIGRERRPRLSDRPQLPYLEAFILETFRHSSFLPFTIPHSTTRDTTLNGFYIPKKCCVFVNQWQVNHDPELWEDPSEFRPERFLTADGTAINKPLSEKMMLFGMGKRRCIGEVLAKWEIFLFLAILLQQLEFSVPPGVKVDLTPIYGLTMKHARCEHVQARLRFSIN
property-measured: IC50

stdin: Given the compound `C[C@@H]1CCCN1CCCOc1ccc(-c2cnn(-c3ccccn3)c(=O)c2)cc1` , write its reported IC50.
stdout: > 30 µM
